Assay: yeast display, Sf9 membrane polyspecificity reagent, FACS + sequencing; frameworks hold sequencing errors
TEST READOUT: polyreactivity (PSR sort gate)

MACROMOLECULE SEQUENCE	polyreactivity (PSR sort gate)
QVQLVESGGGLVQAGGSLRLRGAASGSIFKGNAMGWYRQAPGKERELVAAITRSVARTYYADSVKVRFTISRDNAKNTVYLQMNSLKPEDTAVYDCAADWYQWGGRYYAPRYYYWGQGTQVTVSS	high polyreactivity
QVQHVESGGVLVQAGGSLRLSCAASGRTFISNVMGWYRPAPGKERELVAGITGGGNTYYADSVKGRFTISRDNAKNTVYLQMNSLKPEDTAVYYCAVRYPSYGLSYVRYGYWGQGTQLTVSS	high polyreactivity
QVQLVESGGGLVQAGGSLRLSCAASGRIFSLYAMGWYRQAPGKERELVAAISWSGGTTYDADSVKGRFTISRDNAKNTVYLQMNSLKPEDTAVYYCAAQYIGKKRFNYWGQGTQVTVSS	high polyreactivity
QVQLVESGGGLVQAGGSLRLSCAASGITFWGYAMGWYRQAPGKEREFVARINWSGGRTYYAESVKGRFTISRDNAKKTVYLQMNSLKPEDTAVYYCAATSRIYGYRTYDDWGQGTQVTVSS	high polyreactivity
QVQLVESGGGLVQAGGSLRLSCDASGRIFGYTMGWYIQAPGKERELVAAISKSGGSTYYADSVKGRFTISRDNAKNTVYLQMNSLKPEDTAVYYCNKPQRILYDYWGQGTQVTVSS	high polyreactivity

// input: 4 sequences below; output: polyreactivity (PSR sort gate) for each
1. QDQLVESGGGLVQAGGSLRLSCAASGFIFSPYAMGWYRQAPGKERELVAAINGGGRTYYADSVKGRFTISRDNAKNTVYLQMNILKPEDTAVYYCAVDPISQGHMDYWGQGTLVTVSS
2. QVQLVESGRGLVQAGGSLRLSCAASGGTFYIYAMGWYRQAPGKERELVAVISISDASTYYADSVKGRFTFSRDNAKNTVYLQMNSLKPEDTAVYYCNAKSNPAGSYPSEHSGYDSWGQGTQVTVSS
3. QVQLVESGGGLVQAGGSLRLSCAASGRIFKSYVMGWYRQAPGKERELVAAITRTGGSTYYADSVKGRFTISRDNAKYTVYLQMNSLTPEDTAVYYCNARYSWPRATWYDYWGQGTQVTVSS
4. QVQLVESGGGLVQAGGSLRLSCAASGRTLSRNAMGWYRQAPGKEREFVAAISQRGGSTYYADSVKGRFTISRDNAKNTVYLQMNSLKPEDTAVYYCARRYNAQDYARFDYWGQGTQVTVSS

**Result**
1. low polyreactivity
2. low polyreactivity
3. high polyreactivity
4. high polyreactivity
